Tested on: RXF 393 renal
Assay: NCI tumour cell line growth inhibition, 48 h; in the data active = GI50 below about 0.43 µM; inactive = the rest
I would appreciate it if you answered using one of these outcomes: active, inactive

compound=O=C(CN1CCN(c2cc3c(cc2F)c(=O)c(C(=O)O)cn3C2CC2)CC1)Nc1ccc(C(=O)/C=C/c2ccccc2)cc1 label_value=inactive
compound=Cc1cccc(Cc2cnc(NC(=O)/C=C/c3ccco3)s2)c1 label_value=active

Exercise: What did the test return for `COc1ccc2c(c1)/C(=N/OC(C)=O)c1c-2c(Nc2ccc(/C(C)=N/OC(C)=O)cc2)nc2ccccc12` ?
Key: inactive

Exercise: What did the test return for `C[C@@H]1CC[C@H]2C(CN(C)CC3=C(C(F)(F)F)O[C@@H]4O[C@@]5(C)CC[C@H]6[C@H](C)CC[C@@H]3[C@@]46OO5)=C(C(F)(F)F)O[C@@H]3O[C@@]4(C)CC[C@@H]1[C@]32OO4` ?
Key: inactive

Exercise: What did the test return for `COc1ccc(OC)c(/C=C/C(=O)c2ccc(SC)cc2)c1` ?
Key: inactive

---

System: TK-10 renal
Test: NCI tumour cell line growth inhibition, 48 h; in the data active means GI50 below about 0.43 µM; inactive means the rest
I would appreciate it if you answered using one of these outcomes: label 1 = active, label 0 = inactive

Please review the following examples before continuing.
compound=C[C@@H]1CC[C@H]2C(CN(C)CC3=C(C(F)(F)F)O[C@@H]4O[C@@]5(C)CC[C@H]6[C@H](C)CC[C@@H]3[C@@]46OO5)=C(C(F)(F)F)O[C@@H]3O[C@@]4(C)CC[C@@H]1[C@]32OO4 label_value="label 0"
compound=N#CCCCCCn1c2ccccc2c2c3c(c4c5ccccc5[nH]c4c21)C(=O)N(O)C3=O label_value="label 0"
compound="O=C(c1nc2ccccc2[nH]1)C1C(c2cccc([N+](=O)[O-])c2)C2CC3CCCCC3N2[C@@]12C(=O)Nc1cc(Cl)ccc12 (some centres not stated)" label_value="label 0"

Exercise: What did the test return for `Cn1cc(C2=C(c3cccc(Cl)c3)C(=O)NC2=O)c2ccccc21` ?
Key: label 0

Exercise: What did the test return for `CO[C@H]1/C=C/C=C/C=C/C[C@H](OC(=O)[C@@H](C)NC(=O)C2CCCCC2)[C@H](C)[C@@H](O)/C(C)=C\CCC2=CC(=O)C=C(NC(=O)C1)C2=O` ?
Key: label 1

Exercise: What did the test return for `COc1cc2cc(C(=O)N3C[C@H](CCl)c4c3cc(O)c3ccccc43)[nH]c2c(OC)c1OC` ?
Key: label 1

Exercise: What did the test return for `Cn1ccnc1C(=O)/C=C/c1ccc(CC(=O)Nc2cc(F)c(F)c(F)c2)cc1` ?
Key: label 0

---

Tested on: A498 renal
Experiment: NCI tumour cell line growth inhibition, 48 h; in the data active = GI50 below about 0.43 µM; inactive = the rest
*1 amine or outer side, *2 acyl side, *3 side chain or, on linkers, in order; H or OH if unused. Where a SMILES comes first, the peptide text is derived from it. [ ]: non-standard residue; d: D form. The star is where a group is joined. X12 = NCCCCC(N[*:1])C(=O)CN1CCCC1C(=O)[*:2]; Pentadecanoyl = CCCCCCCCCCCCCCC(=O)*
I would appreciate it if you answered using one of these outcomes: active, inactive

Exercise: What did the test return for `Cn1cc(C2=C(c3cccc(Cl)c3)C(=O)NC2=O)c2ccccc21` ?
Key: inactive

Exercise: What did the test return for `CC[C@@]1(O)C(=O)N(CCN(C)C)Cc2c1cc1n(c2=O)Cc2cc3ccccc3nc2-1` ?
Key: inactive

Exercise: What did the test return for CCCCCCCCCCCCCCC(=O)NC(CCCCN)C(=O)CN1CCCC1C(=O)NCC(=O)NC(Cc1ccccc1)C(=O)N1CCCC1C(=O)NC(CO)C(=O)NC(Cc1ccc(O)cc1)C(=O)NC(CCCCN)C(=O)NC(CC(C)C)C(=O)NC(CCCN=C(N)N)C(=O)N1CCCC1C(=O)NCC(N)=O (stereo unspecified) (Pentadecanoyl-[X12]GFPSYKLRPG-NH2; configuration not given here) ?
Key: inactive

Exercise: What did the test return for `C[C@@H]1CC[C@H]2C(CN(C)CC3=C(C(F)(F)F)O[C@@H]4O[C@@]5(C)CC[C@H]6[C@H](C)CC[C@@H]3[C@@]46OO5)=C(C(F)(F)F)O[C@@H]3O[C@@]4(C)CC[C@@H]1[C@]32OO4` ?
Key: inactive

Exercise: What did the test return for `Cn1cc(C2=C(c3cn(C)c4cc(Cl)ccc34)C(=O)NC2=O)c2ccccc21` ?
Key: active

Exercise: What did the test return for COc1ccc(C2C3=C(COC3=O)N(CCO)c3cc4c(cc32)CCC4)cc1OC (stereo unspecified) ?
Key: active

Exercise: What did the test return for `CO[C@H]1/C=C/C=C/C=C/C[C@H](OC(=O)[C@@H](C)NC(=O)C2CCCCC2)[C@H](C)[C@@H](O)/C(C)=C\CCC2=CC(=O)C=C(NC(=O)C1)C2=O` ?
Key: active

Exercise: What did the test return for `CCN1CCN(c2nc(NNC(=O)c3cccc(OC)c3)nc(N3CCN(C(c4ccccc4)c4ccccc4)CC3)n2)CC1` ?
Key: inactive

Exercise: What did the test return for `Cn1ccnc1C(=O)/C=C/c1ccc(CC(=O)Nc2cc(F)c(F)c(F)c2)cc1` ?
Key: inactive

Exercise: What did the test return for `Clc1ccc2c(NCCNc3nc(Cl)nc4ccccc34)ccnc2c1` ?
Key: inactive

Exercise: What did the test return for `O=C(Nc1ccc(Oc2cccc(Cl)c2)c(Cl)c1)c1cccnc1` ?
Key: inactive
